Just for reference, paper PMC6076269 is where these values come from.

Target: hSpt5 KOW4 (S522-G647) (Homo sapiens, UniProt O00267 522-647)
Assay: fluorescence anisotropy; 50 nM nucleic acid; Fluorescence anisotropy: 25 mM Tris/HCl pH 7.0, 50 mM NaCl, 25 C (buffer printed for duplex annealing, named fluorescence buffer); NMR with Rpb4/7 (Fig 7): 50 mM Na phosphate pH 7.0, 50 mM NaCl, 1 mM DTT, 298 K
Conditions: protein: recombinant; tags: His6-GB1 removed by TEV; label: 5' 6-FAM
For each entry below, report its pKd value.
Give bare numbers, as −log10 of the molar value.

Some entries whose results are on file:
GAAAATTGGGTAAG (ssDNA) [ssDNA2]	4.61
CTTATTGAATTA (ssDNA) [ssDNA1]	4.91

Now for the binder whose pKd we want.
Entry under test: GGCGGUAGCGUG (ssRNA) [ssRNA] . Its pKd was 4.40
